Taken from ChEMBL document CHEMBL1134363.

# studySystem: Adrenergic receptor alpha-1 (Rattus norvegicus, UniProt P15823+P23944+P43140)
# procedureText: In vitro binding affinity against alpha-1 adrenergic receptor of rat in presence of [3H]-prazosin radioligand
# Format: protein assay

>  <compound>
FC(F)(F)c1ccc2c(c1)C=C(CC1CN=CN1)CC2 (stereo not drawn)

>  <studySystem>
Adrenergic receptor alpha-1 (Rattus norvegicus, UniProt P15823+P23944+P43140)

>  <Log Ki>
-5.9

$$$$
>  <compound>
Cc1cccc2c1C=C(CC1CN=CN1)CC2 (stereo not drawn)

>  <studySystem>
Adrenergic receptor alpha-1 (Rattus norvegicus, UniProt P15823+P23944+P43140)

>  <Log Ki>
-6.2

$$$$
>  <compound>
C1=C(CC2=NCCN2)CCc2ccccc21

>  <studySystem>
Adrenergic receptor alpha-1 (Rattus norvegicus, UniProt P15823+P23944+P43140)

>  <Log Ki>
-7

$$$$
>  <compound>
C1=NC[C@@H](C2C[C@@]23CCc2ccccc2C3)N1 (stereo partly drawn)

>  <studySystem>
Adrenergic receptor alpha-1 (Rattus norvegicus, UniProt P15823+P23944+P43140)

>  <Log Ki>
-6.3

$$$$
>  <compound>
C1=NCC([C@@H]2[C@@H]3Cc4ccccc4C[C@@H]32)N1 (stereo partly drawn)

>  <studySystem>
Adrenergic receptor alpha-1 (Rattus norvegicus, UniProt P15823+P23944+P43140)

>  <Log Ki>
-6.1

$$$$
>  <compound>
C1=NC[C@@H](C2CC23Cc2ccccc2C3)N1 (stereo partly drawn)

>  <studySystem>
Adrenergic receptor alpha-1 (Rattus norvegicus, UniProt P15823+P23944+P43140)

>  <Log Ki>
-5.2

$$$$
>  <compound>
CC1(C)CC(CC2CN=CN2)=Cc2ccccc21 (stereo not drawn)

>  <studySystem>
Adrenergic receptor alpha-1 (Rattus norvegicus, UniProt P15823+P23944+P43140)

>  <Log Ki>
-6.1

$$$$
>  <compound>
CC1(CC2=Cc3ccccc3CC2)CN=CN1 (stereo not drawn)

>  <studySystem>
Adrenergic receptor alpha-1 (Rattus norvegicus, UniProt P15823+P23944+P43140)

>  <Log Ki>
-5.9

$$$$
>  <compound>
Clc1cccc2c1CC(CC1CN=CN1)CC2 (stereo not drawn)

>  <studySystem>
Adrenergic receptor alpha-1 (Rattus norvegicus, UniProt P15823+P23944+P43140)

>  <Log Ki>
-6.5

$$$$
>  <compound>
Fc1cc2c(cc1F)CC(CC1CN=CN1)C2 (stereo not drawn)

>  <studySystem>
Adrenergic receptor alpha-1 (Rattus norvegicus, UniProt P15823+P23944+P43140)

>  <Log Ki>
-6.1

$$$$
>  <compound>
C1=NC(CC2CCc3ccccc3O2)CN1 (stereo not drawn)

>  <studySystem>
Adrenergic receptor alpha-1 (Rattus norvegicus, UniProt P15823+P23944+P43140)

>  <Log Ki>
-6.5

$$$$
>  <compound>
C[C@@]1(C[C@@H]2CN=CN2)CCc2ccccc2C1

>  <studySystem>
Adrenergic receptor alpha-1 (Rattus norvegicus, UniProt P15823+P23944+P43140)

>  <Log Ki>
-6

$$$$
>  <compound>
C1=NCC(CC2=Cc3ccccc3C2)N1 (stereo not drawn)

>  <studySystem>
Adrenergic receptor alpha-1 (Rattus norvegicus, UniProt P15823+P23944+P43140)

>  <Log Ki>
-5.9

$$$$

====

# studySystem: Sodium-dependent serotonin transporter (Rattus norvegicus, UniProt P31652)
# Sequence (P31652 whole entry): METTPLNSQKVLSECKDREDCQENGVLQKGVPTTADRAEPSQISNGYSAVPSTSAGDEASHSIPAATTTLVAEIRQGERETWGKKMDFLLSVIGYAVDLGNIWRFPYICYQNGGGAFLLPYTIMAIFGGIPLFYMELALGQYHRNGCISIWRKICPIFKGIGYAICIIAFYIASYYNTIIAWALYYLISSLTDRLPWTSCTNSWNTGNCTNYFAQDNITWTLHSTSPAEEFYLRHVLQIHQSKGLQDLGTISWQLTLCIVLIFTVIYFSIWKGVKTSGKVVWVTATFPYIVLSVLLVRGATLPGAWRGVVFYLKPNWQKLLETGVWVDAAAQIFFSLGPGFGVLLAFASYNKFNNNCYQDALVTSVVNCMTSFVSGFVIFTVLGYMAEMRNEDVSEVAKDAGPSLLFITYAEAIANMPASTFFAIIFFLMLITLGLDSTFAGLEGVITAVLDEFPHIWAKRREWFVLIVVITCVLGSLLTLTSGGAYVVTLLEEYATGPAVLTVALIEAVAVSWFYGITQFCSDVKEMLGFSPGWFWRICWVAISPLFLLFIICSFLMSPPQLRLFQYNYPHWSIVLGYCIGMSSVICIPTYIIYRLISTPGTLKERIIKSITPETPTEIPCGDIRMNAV
# procedureText: In vitro binding affinity was determined against serotonin reuptake site of rat in presence of [3H]paroxetine radioligand
measurementKind: Ki (nM)

>  <compound>
CC1(CC2=Cc3ccccc3CC2)CN=CN1 (centres undefined)

>  <studySystem>
Sodium-dependent serotonin transporter (Rattus norvegicus, UniProt P31652)

>  <unitSymbol>
nM

>  <testValue>
63.1

$$$$
>  <compound>
C1=C(CC2=NCCN2)CCc2ccccc21 [NAPAMEZOLE]

>  <studySystem>
Sodium-dependent serotonin transporter (Rattus norvegicus, UniProt P31652)

>  <unitSymbol>
nM

>  <testValue>
200

$$$$
>  <compound>
CN[C@H](CC(C)C)C(=O)N[C@H]1C(=O)N[C@@H](CC(N)=O)C(=O)N[C@H]2C(=O)N[C@H]3C(=O)N[C@H](C(=O)N[C@H](C(=O)O)c4cc(O)cc(O)c4-c4cc3ccc4O)[C@H](O)c3ccc(c(Cl)c3)Oc3cc2cc(c3O[C@@H]2O[C@H](CO)[C@@H](O)[C@H](O)[C@H]2O[C@H]2C[C@](C)(N)[C@H](O)[C@H](C)O2)Oc2ccc(cc2Cl)[C@H]1O [VANCOMYCIN]

>  <studySystem>
Sodium-dependent serotonin transporter (Rattus norvegicus, UniProt P31652)

>  <unitSymbol>
nM

>  <testValue>
50.1

$$$$
>  <compound>
C1=NC[C@H](C2C[C@@]23CCc2ccccc2C3)N1 (some centres undefined)

>  <studySystem>
Sodium-dependent serotonin transporter (Rattus norvegicus, UniProt P31652)

>  <unitSymbol>
nM

>  <testValue>
25.1

$$$$

====

# studySystem: Alpha-2A adrenergic receptor (Homo sapiens)
# procedureText: Antagonistic activity as [35S]GTP gamma-S binding at alpha-2a adrenergic receptor expressed in CHO cells
# Type: functional, cell-based

>  <molecule>
C1=NC[C@H](C[C@]23CCc4ccccc4C2C3)N1 (stereo partly drawn)

>  <pKB>
6.8

$$$$
>  <molecule>
Fc1ccc2c(c1)C=C(CC1CN=CN1)CC2 (stereo not drawn)

>  <pKB>
6.7

$$$$
>  <molecule>
C1=NCC(CC2Cc3ccccc3C2)N1 (stereo not drawn)

>  <pKB>
8.1

$$$$
>  <molecule>
Clc1cccc2c1C=C(CC1CN=CN1)CC2 (stereo not drawn)

>  <pKB>
7.6

$$$$
>  <molecule>
CNCCC(Oc1ccc(C(F)(F)F)cc1)c1ccccc1 (stereo not drawn)

>  <pKB>
7.4

$$$$
>  <molecule>
C1=NC[C@]2(CC[C@@H]3Cc4ccccc4C[C@H]3C2)N1 (relative stereo)

>  <pKB>
8.2

$$$$
>  <molecule>
CN[C@H](CC(C)C)C(=O)N[C@H]1C(=O)N[C@@H](CC(N)=O)C(=O)N[C@H]2C(=O)N[C@H]3C(=O)N[C@H](C(=O)N[C@H](C(=O)O)c4cc(O)cc(O)c4-c4cc3ccc4O)[C@H](O)c3ccc(c(Cl)c3)Oc3cc2cc(c3O[C@@H]2O[C@H](CO)[C@@H](O)[C@H](O)[C@H]2O[C@H]2C[C@](C)(N)[C@H](O)[C@H](C)O2)Oc2ccc(cc2Cl)[C@H]1O [VANCOMYCIN]

>  <pKB>
6.7

$$$$
>  <molecule>
Fc1cccc2c1C=C(CC1CN=CN1)CC2 (stereo not drawn)

>  <pKB>
6.8

$$$$
>  <molecule>
C1=NC[C@@H](C2C[C@@]23CCc2ccccc2C3)N1 (stereo partly drawn)

>  <pKB>
8.2

$$$$
>  <molecule>
C1=NCC(CC2=Cc3ccccc3CC2)N1 (stereo not drawn)

>  <pKB>
6.6

$$$$
>  <molecule>
CCC1(c2c[nH]cn2)Cc2ccccc2C1 [ATIPAMEZOLE]

>  <pKB>
8.9

$$$$
>  <molecule>
Clc1cccc2ccc(CC3CN=CN3)cc12 (stereo not drawn)

>  <pKB>
7.5

$$$$
>  <molecule>
C1=NCC(Cc2cc3ccccc3o2)N1 (stereo not drawn)

>  <pKB>
6.9

$$$$

====

# studySystem: Norepinephrine transporter (Rattus norvegicus, UniProt Q9WTR4)
# Sequence (Q9WTR4 whole entry): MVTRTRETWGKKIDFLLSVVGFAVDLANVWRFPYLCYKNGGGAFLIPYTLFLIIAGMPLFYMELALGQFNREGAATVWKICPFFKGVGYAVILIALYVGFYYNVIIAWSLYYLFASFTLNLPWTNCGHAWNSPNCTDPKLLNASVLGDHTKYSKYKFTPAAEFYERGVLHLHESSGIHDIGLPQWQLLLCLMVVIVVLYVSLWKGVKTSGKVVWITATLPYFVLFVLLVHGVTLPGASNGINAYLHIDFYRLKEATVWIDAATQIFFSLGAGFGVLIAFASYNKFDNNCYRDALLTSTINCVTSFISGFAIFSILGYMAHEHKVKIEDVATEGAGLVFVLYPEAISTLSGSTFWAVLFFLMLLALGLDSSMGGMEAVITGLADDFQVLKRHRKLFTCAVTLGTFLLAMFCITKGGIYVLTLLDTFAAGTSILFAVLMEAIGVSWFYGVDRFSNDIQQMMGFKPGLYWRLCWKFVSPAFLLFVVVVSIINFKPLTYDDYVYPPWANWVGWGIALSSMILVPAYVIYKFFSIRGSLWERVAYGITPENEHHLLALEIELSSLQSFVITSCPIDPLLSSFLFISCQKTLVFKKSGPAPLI
# procedureText: In vitro binding affinity was determined against NA (noradrenaline) reuptake site of rat in presence of [3H]nisoxetine radioligand
pKi: −log10 of the molar value.
Measured pKi, listed per entry.

>  <molecule>
Fc1cc2c(cc1F)CC(CC1CN=CN1)C2 (stereo not drawn)

>  <pKi>
7.00

$$$$
>  <molecule>
NC1=NC(CC2=Cc3ccccc3CC2)CN1 (stereo not drawn)

>  <pKi>
7.10

$$$$
>  <molecule>
C1=NCC(CC2CCc3ccccc3C2)N1 (stereo not drawn)

>  <pKi>
7.00

$$$$
>  <molecule>
C1=NCC(CC2=Cc3ccccc3OC2)N1 (stereo not drawn)

>  <pKi>
7.20

$$$$
>  <molecule>
Clc1cccc2c1CC(CC1CN=CN1)CC2 (stereo not drawn)

>  <pKi>
7.00

$$$$
>  <molecule>
C[C@@]1(C[C@H]2CN=CN2)CCc2ccccc2C1

>  <pKi>
7.20

$$$$
>  <molecule>
Fc1cccc2c1CC(CC1CN=CN1)C2 (stereo not drawn)

>  <pKi>
7.00

$$$$
>  <molecule>
C1=NCC(Cc2cc3cc(-c4ccccc4)ccc3o2)N1 (stereo not drawn)

>  <pKi>
6.80

$$$$
